Every entry's value here was drawn from patent US8835440B2.

Molecular target: CCR2 (Homo sapiens)
Construct: Membranes were prepared from THP-1 cells; endogenous in cells; host or cells: THP-1 cells (membrane preparation)
Sequence (P41597 1-360 isoform P41597-2): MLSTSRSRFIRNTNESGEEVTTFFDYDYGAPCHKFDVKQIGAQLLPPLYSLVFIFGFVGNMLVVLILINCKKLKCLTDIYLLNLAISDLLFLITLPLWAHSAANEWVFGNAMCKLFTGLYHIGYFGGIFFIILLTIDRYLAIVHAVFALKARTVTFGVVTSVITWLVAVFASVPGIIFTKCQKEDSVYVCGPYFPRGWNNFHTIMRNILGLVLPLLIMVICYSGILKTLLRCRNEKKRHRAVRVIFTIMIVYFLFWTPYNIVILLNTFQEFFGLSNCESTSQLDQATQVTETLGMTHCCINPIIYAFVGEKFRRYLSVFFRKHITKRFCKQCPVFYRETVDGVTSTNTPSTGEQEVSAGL
Assay: CCR2 receptor membrane binding assay ([125I]MCP-1, THP-1 cell membranes, SPA beads)
Details: @ 10 μM test compound; THP-1 membranes; read-out: CCR2 % ctrl @ 10 μM
For each of the compounds below, state its remaining activity at 10 µM.
Numbers only, in %.

Worked cases, remaining activity at 10 µM given:
Cc1c(NCc2ccc(Cl)c(Cl)c2)ncnc1C(=O)N1CCC(N2CCC3(CCNC3=O)CC2)CC1	27
Cc1c(NCc2ccc(C(C)(C)C)cc2)ncnc1C(=O)N1CCC(N2CCC(NS(C)(=O)=O)CC2)CC1	7
Cc1c(NCCc2ccc(Cl)c(Cl)c2)ncnc1C(=O)N1CCC(N2CCC(O)CC2)CC1	14

The measured remaining activity at 10 µM that Cc1c(NCc2cccc(-c3ccccc3)c2)ncnc1C(=O)N1CCC(N2CCC(N(C)C)CC2)CC1 showed for CCR2 (Homo sapiens) is 14

----------
biological target: CCR2 (Homo sapiens, UniProt P41597); construct: Membranes were prepared from THP-1 cells; endogenous in cells; assay: CCR2 receptor membrane binding assay ([125I]MCP-1, THP-1 cell membranes, SPA beads); settings: dissociation constant hKi; [125I]MCP-1 binding to THP-1 membranes
experimental.readout: pKi
Numbers only, as −log10 of the molar value.

Solved entries (count: 5):
Cc1c(NCCc2ccc(Cl)c(Cl)c2)ncnc1C(=O)N1CCC(N2CCC[C@H](NS(C)(=O)=O)C2)CC1	5.64
Cc1cc(CNc2ncnc(C(=O)N3CCC(N4CCC(N(C)S(C)(=O)=O)CC4)CC3)c2C)ccc1F	6.70
Cc1c(NC[C@H]2CCC[C@@H](c3ccccc3)C2)ncnc1C(=O)N1CCC(N2CCC(N(C)S(C)(=O)=O)CC2)CC1	8.52
Cc1c(NCc2ccc(OC(F)(F)F)cc2)ncnc1C(=O)N1CCC(N2CCC(O)CC2)CC1	6.21
Cc1c(NCC2Cc3ccccc32)ncnc1C(=O)N1CCC(N2CCC(O)CC2)CC1 (stereo not drawn)	6.04

Below are 4 compounds. Give each one its pKi.
1. Cc1c(NCCc2ccc(C(C)C)cc2)ncnc1C(=O)N1CCC(N2CCC(O)CC2)CC1
2. CNC(=O)C1CCN(C2CCN(C(=O)c3ncnc(NCC4CCCC(c5ccc(F)cc5)C4)c3C)CC2)CC1 (stereo not drawn) [Example 159aa]
3. COC1CC(F)(F)CCC1NC1CCN(C(=O)c2ncnc(NCc3ccc(C(C)(C)C)cc3)c2C)CC1 (stereo not drawn) [Example 228g]
4. Cc1nc(NC[C@@H]2CCC[C@H](c3ccc(C)o3)C2)c(C)c(C(=O)N2CCC(N3CCC(N(C)S(C)(=O)=O)CC3)CC2)n1 [Example 159cc]

Data returned:
1: 6.39; 2: 7.74; 3: 6.77; 4: 8.00

----------
Hi there, I'd appreciate the recorded Ki for every entry that follows.
Molecular target: CCR2 (Homo sapiens)
Construct: Membranes were prepared from THP-1 cells; endogenous in cells
Sequence (P41597 1-360 isoform P41597-2): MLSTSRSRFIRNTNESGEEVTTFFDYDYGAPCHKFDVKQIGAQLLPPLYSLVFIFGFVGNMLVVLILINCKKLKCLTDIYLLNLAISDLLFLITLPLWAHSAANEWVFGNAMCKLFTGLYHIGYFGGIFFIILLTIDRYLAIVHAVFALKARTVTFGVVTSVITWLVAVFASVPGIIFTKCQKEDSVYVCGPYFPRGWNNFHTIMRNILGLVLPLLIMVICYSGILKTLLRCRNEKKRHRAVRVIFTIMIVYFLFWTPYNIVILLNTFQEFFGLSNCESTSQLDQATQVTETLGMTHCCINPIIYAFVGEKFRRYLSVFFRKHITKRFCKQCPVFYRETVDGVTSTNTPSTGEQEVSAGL
Experiment: CCR2 receptor membrane binding assay ([125I]MCP-1, THP-1 cell membranes, SPA beads)
Details: dissociation constant hKi; [125I]MCP-1 binding to THP-1 membranes
Give bare numbers, in nM.

Examples with answers:
Cc1c(NCC2CCC(C)C2)ncnc1C(=O)N1CCC(N2CCC(N(C)S(C)(=O)=O)CC2)CC1 (stereo not drawn) [Example 159bb]	48
Cc1c(NCc2ccc(C(C)(C)C)cc2)ncnc1C(=O)N1CCC(N2CCC(COc3ccccc3)C2)CC1 (stereo not drawn) [Example 228ge]	37
COc1ccc(CCNc2ncnc(C(=O)N3CCC(N4CCC(O)CC4)CC3)c2C)cc1Cl [Example 105]	687

State recorded Ki for all listed compounds.
1. Cc1c(NCc2ccc(Cl)cc2)ncnc1C(=O)N1CCC(N2CCC(N(C)S(C)(=O)=O)CC2)CC1
2. Cc1c(NCc2ccc(Cl)c(Cl)c2)ncnc1C(=O)N1CCC(N2CCC(NS(C)(=O)=O)CC2)CC1
3. COC1COCCC1NC1CCN(C(=O)c2ncnc(NCC3Cc4ccccc4C3)c2C)CC1 (stereo not drawn) [Example 159fc]
4. Cc1c(NCc2ccc(Cl)c(Cl)c2)ncnc1C(=O)N1CCC(N2CCCOCC2)CC1

Data returned:
[97, 81, 13, 516]

I would be grateful if you could provide Ki for each of the following entries.
1. Cc1c(N[C@@H]2CCc3ccccc3C2)ncnc1C(=O)N1CCC(N2CCC(O)CC2)CC1
2. Cc1c(NCc2ccc(Cl)c(Cl)c2)ncnc1C(=O)N1CCC(N(C)CC#N)CC1
3. COC1COCCC1N(C)C1CCN(C(=O)c2ncnc(NCC3CCC[C@@H](c4ccccc4)C3)c2C)CC1 (stereo partly drawn) [Example 228h]

Data returned:
1: 2410; 2: 2990; 3: 5

----------
Target: CCR2 (Homo sapiens)
Construct: Membranes were prepared from THP-1 cells; endogenous in cells; host or cells: THP-1 cells (membrane preparation)
Sequence (P41597 1-360 isoform P41597-2): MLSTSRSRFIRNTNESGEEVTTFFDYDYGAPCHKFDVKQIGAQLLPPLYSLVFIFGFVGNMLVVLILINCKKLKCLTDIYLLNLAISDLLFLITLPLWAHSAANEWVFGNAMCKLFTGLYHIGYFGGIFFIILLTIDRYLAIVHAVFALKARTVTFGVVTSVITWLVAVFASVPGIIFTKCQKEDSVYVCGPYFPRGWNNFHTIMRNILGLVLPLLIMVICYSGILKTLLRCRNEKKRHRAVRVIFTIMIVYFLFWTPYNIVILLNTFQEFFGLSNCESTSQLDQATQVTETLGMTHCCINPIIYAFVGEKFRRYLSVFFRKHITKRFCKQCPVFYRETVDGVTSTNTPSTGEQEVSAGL
Test: CCR2 receptor membrane binding assay ([125I]MCP-1, THP-1 cell membranes, SPA beads)
Conditions: @ 10 μM test compound; THP-1 membranes; read-out: CCR2 % ctrl @ 10 μM
Please provide measured remaining activity at 10 µM for the entries that follow.
Numbers only, in %.

Below, 7 molecules whose answers are already recorded.
Cc1c(NC2CCCCC2)ncnc1C(=O)N1CCC(N2CCC(O)CC2)CC1 [Example 28]	58
Cc1c(NCc2ccc(Cl)c(C(F)(F)F)c2)ncnc1C(=O)N1CCC(N2CCC(O)CC2)CC1 [Example 125]	25
Cc1c(NCc2ccc(-c3ccccc3)cc2)ncnc1C(=O)N1CCC(N2CCC(O)CC2)CC1 [Example 101]	35
Cc1c(NCc2ccc(Cl)c(Cl)c2)ncnc1C(=O)N1CCC(N2CCC3(CC2)CCN(S(C)(=O)=O)C3)CC1 [Example 188]	53
Cc1nc(NC[C@H]2CCN(c3ccccc3)C2)c(C)c(C(=O)N2CCC(N3CCC(N(C)S(C)(=O)=O)CC3)CC2)n1 [Example 159]	4
Cc1c(NCc2ccc(Cl)c(Cl)c2)ncnc1C(=O)N1CCC(N2CCCC(F)C2)CC1 (centres unmarked) [Example 233]	8
CNC(=O)C1(C)CCN(C2CCN(C(=O)c3ncnc(NCc4ccc(C(C)(C)C)cc4)c3C)CC2)CC1 [Example 224]	35

Just so you know, measured remaining activity at 10 µM for Cc1c(NCc2ccc(Cl)cc2)ncnc1C(=O)N1CCC(N2CCC(O)CC2)CC1 [Example 110] came out at 28
